- Tgt: Y641N EZH2 (Homo sapiens, UniProt Q15910, Y641N)
- Sequence (Q15910 whole entry Y641N): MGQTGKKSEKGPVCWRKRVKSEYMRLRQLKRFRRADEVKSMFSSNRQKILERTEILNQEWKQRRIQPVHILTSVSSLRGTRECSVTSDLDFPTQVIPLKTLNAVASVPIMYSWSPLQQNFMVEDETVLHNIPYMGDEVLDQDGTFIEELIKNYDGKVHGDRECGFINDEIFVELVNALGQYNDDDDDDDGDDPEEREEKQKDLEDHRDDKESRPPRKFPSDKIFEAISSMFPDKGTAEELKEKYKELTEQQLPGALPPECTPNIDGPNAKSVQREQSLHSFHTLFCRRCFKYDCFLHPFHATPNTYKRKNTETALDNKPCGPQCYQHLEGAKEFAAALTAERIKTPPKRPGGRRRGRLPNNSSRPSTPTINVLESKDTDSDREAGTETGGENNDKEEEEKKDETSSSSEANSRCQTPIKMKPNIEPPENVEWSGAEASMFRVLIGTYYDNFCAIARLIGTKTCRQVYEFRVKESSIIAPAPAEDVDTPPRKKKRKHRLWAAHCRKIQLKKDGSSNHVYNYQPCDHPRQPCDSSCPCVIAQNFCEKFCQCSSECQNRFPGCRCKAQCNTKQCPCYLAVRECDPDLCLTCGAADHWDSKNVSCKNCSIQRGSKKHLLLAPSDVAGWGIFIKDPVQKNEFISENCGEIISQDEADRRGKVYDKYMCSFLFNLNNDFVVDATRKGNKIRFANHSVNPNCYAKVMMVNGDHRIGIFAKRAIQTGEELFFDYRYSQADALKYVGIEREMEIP
- Sequence (O75530 whole entry partner): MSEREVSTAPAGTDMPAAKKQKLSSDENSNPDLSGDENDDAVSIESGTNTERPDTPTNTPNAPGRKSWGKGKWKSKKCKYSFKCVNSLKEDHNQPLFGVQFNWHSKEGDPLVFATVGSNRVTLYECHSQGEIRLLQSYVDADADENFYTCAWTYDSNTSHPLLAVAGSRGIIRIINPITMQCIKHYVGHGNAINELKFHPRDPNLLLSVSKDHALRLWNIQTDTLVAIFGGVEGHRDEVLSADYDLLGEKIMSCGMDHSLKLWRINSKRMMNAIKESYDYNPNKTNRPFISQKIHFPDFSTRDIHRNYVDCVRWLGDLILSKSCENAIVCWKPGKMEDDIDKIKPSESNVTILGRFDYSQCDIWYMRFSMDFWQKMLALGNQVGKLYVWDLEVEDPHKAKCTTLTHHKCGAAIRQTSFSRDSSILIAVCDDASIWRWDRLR
- Sequence (Q15022 whole entry partner): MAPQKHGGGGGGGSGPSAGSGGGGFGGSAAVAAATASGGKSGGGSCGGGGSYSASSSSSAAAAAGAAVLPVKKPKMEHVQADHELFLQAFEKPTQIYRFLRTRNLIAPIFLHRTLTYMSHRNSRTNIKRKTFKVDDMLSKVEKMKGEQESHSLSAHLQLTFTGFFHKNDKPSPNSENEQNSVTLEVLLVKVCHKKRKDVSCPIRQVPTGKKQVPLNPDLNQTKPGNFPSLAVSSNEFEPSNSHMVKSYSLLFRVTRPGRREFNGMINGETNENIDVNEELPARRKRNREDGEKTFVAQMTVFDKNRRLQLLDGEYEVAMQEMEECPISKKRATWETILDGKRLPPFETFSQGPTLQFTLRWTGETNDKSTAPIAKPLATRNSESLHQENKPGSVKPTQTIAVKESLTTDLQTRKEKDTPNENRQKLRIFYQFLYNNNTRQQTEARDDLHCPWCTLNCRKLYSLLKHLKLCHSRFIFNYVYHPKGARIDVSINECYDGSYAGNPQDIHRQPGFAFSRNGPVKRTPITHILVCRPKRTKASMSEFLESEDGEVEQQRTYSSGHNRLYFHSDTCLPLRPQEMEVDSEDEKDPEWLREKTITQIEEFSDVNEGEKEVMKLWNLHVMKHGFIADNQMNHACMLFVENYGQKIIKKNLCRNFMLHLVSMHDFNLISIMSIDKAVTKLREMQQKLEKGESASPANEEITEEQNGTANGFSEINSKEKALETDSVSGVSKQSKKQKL
- Procedure summary: Y641N EZH2 assay (as EZH2 assay, H3K27Me2 oligonucleosomes as substrate)
- Type: biochemical
pIC50: −log10 of the molar value.
Readout: pIC50

| Structure smiles string | Tgt | Readout | Reported |
| --- | --- | --- | --- |
| COc1cc(C)[nH]c(=O)c1CNC(=O)c1c(C)n([C@H](C)C2CCN(C[C@H](O)C(F)(F)F)CC2)c2ccccc12 | Y641N EZH2 (Homo sapiens, UniProt Q15910, Y641N) | pIC50 | > 7.00 |
| Cc1cc(C)c(CNC(=O)c2c(C)n([C@H](C)C3CCN(S(=O)(=O)C4CN(C)C4)CC3)c3ccccc23)c(=O)[nH]1 | Y641N EZH2 (Homo sapiens, UniProt Q15910, Y641N) | pIC50 | > 7.00 |

Turning to the following molecule.
Param readout = pIC50; param system = Y641N EZH2 (Homo sapiens, UniProt Q15910, Y641N); param query = Cc1cc(Cl)c(CNC(=O)c2c(C)n([C@H](C)C3CCN(CC(C)(F)F)CC3)c3ccccc23)c(=O)[nH]1 ; response: value > 7.00

###

- Tgt: Y641N EZH2 (Homo sapiens, UniProt Q15910, Y641N)
- Procedure summary: Y641N EZH2 assay (as EZH2 assay, H3K27Me2 oligonucleosomes as substrate)
- Type: biochemical
- Condition context: Y641N EZH2, reconstituted H3K27Me2 oligonucleosomes as substrate; read-out: EZH2_Y641N_nuc_BSA_Brij_6.0 (IC50)
IC50 values by entry

| Structure smiles string | Reported |
| --- | --- |
| Cc1cc(C)c(CNC(=O)c2c(C)n([C@H](C)C3CCN(S(=O)(=O)C4CCNCC4)CC3)c3ccccc23)c(=O)[nH]1 | < 0.1 µM |

Turning to the following molecule.
Request the reported IC50 associated with Cc1cc(C)c(CNC(=O)c2c(C)n([C@H](C)C3CCN(S(=O)(=O)C4CNC4)CC3)c3ccccc23)c(=O)[nH]1 < 0.1 µM
